src = PubChem BioAssay (Tox21)

experiment: cAMP Responsive Elements (CRE) small molecule antagonists, cell-based qHTS assay: qHTS cell viability counter screen (AID 2060913); details: CRE-bla HEK293T viability, CellTiter-Glo luminescence, 5 h; series mostly up to 92.4 µM; note: nearly all actives have a fitted effect of over 40% in size
Records with an inconclusive call do not appear. Active and inactive are the calls of the source. Calls come from the whole dose curve; as a rule, active = well fitted cell-killing curve with a large enough effect in the repeat runs; inconclusive = weak or mixed curves, or effect the other way; inactive = flat fitted curve, though single readings scatter.
Classes used: active, inactive

compound=CCCCN(CCCC)C(=S)S class_label=inactive
compound=O=[N+]([O-])c1ccc(Nc2ccccc2)cc1 class_label=inactive
compound=O=C1OC(c2ccc(O)c(S(=O)(=O)O)c2)(c2ccc(O)c(S(=O)(=O)O)c2)c2c(Br)c(Br)c(Br)c(Br)c21 class_label=inactive
compound=Cl class_label=inactive
compound=Oc1ccccc1Cl class_label=inactive
compound=CCOP(=S)(OCC)Oc1ccc(Cl)cc1Cl class_label=inactive
compound=NNC(=O)c1ccccc1 class_label=inactive
compound=c1ccc(Nc2ccc3ccccc3c2)cc1 class_label=inactive
compound=O=C(Cc1ccccc1)c1ccccc1 class_label=inactive
compound=CCCCCc1cc(O)cc(O)c1 class_label=inactive
compound=O=C(O)c1cccc(Cl)c1 class_label=inactive
compound=O=[N+]([O-])O.O=[N+]([O-])O.[Cd] class_label=inactive
compound=CCCCCC[N+](=O)[O-] class_label=inactive
compound="CCCCC(CC)C(=O)Cl (stereo not drawn)" class_label=inactive
compound="CC1NCCOC1c1ccccc1 (stereo not drawn)" class_label=inactive
compound=Nc1c(Oc2ccccc2)cc(O)c2c1C(=O)c1ccccc1C2=O class_label=inactive
compound=NC(=S)C(N)=S class_label=inactive
compound="Cc1coc2c1CCC(C)C2 (stereo not drawn)" class_label=inactive
compound=Cc1ccc(O)c(C)c1 class_label=inactive
compound=CN[C@@H](C)[C@H](O)c1ccccc1 class_label=inactive
compound=CNC(=O)Oc1ccccc1C1OCCO1 class_label=inactive
compound=Clc1ccc(C(c2ccc(Cl)cc2)C(Cl)Cl)cc1 class_label=inactive
compound=CNC(=O)Oc1cccc(N=CN(C)C)c1 class_label=inactive
compound=Cc1c(Cl)c(=O)oc2cc(OP(=O)(OCCCl)OCCCl)ccc12 class_label=inactive
compound="COc1ccc(C(CN(C)C)C2(O)CCCCC2)cc1 (stereo not drawn)" class_label=inactive
compound=CC(=O)[O-].CC(=O)[O-].O.O.[Cd+2] class_label=active
compound=CN(C)C(=O)Nc1cccc(C(F)(F)F)c1 class_label=inactive
compound=Clc1ccc(Oc2ccccc2)cc1 class_label=inactive
compound=O=C1C=CC(=O)C=C1 class_label=inactive
compound=OC(c1ccccc1)(c1ccccc1)C1CCNCC1 class_label=inactive
compound=CCC(C)(C)O class_label=inactive
compound=CCCCOP(=O)(CCCC)OCCCC class_label=inactive
compound=O=C(O)C(F)(F)C(F)(F)C(F)(F)C(F)(F)C(F)(F)C(F)(F)C(F)(F)C(F)(F)C(F)(F)F class_label=inactive
compound=CC(=O)[C@H]1CC[C@H]2[C@@H]3CC[C@H]4C[C@](C)(O)CC[C@]4(C)[C@H]3CC[C@]12C class_label=inactive
compound=Nc1ccc(Cc2ccc(N)c(Cl)c2)cc1Cl class_label=inactive
compound=CN1CC[C@]23c4c5ccc(O)c4O[C@H]2[C@@H](O)C=C[C@H]3[C@H]1C5 class_label=inactive
compound=CC(C)(c1ccccc1)c1ccc(O)cc1 class_label=inactive
compound="CCC(C(N)=O)N1CCCC1=O (stereo not drawn)" class_label=inactive
compound=O=[N+]([O-])c1ccc2c3c(cccc13)CC2 class_label=inactive
compound=[O-][Cl+2]([O-])O class_label=inactive
compound="CCOC(=O)OC1=C(c2cc(C)ccc2C)C(=O)NC12CCC(OC)CC2 (stereo not drawn)" class_label=inactive
compound=Cl/C=C\CCl class_label=inactive
compound="O=C(O)C(O)C(O)C(=O)O (stereo not drawn)" class_label=inactive
compound=Brc1ccc(Oc2ccccc2)cc1 class_label=inactive
compound=CCCCOC(=O)c1ccccc1C(=O)O class_label=inactive
compound=CC[N+](=O)[O-] class_label=inactive
compound=C[C@]12CC[C@H]3[C@@H](CCC4=CC(=O)CC[C@@H]43)[C@@H]1CC[C@@H]2OC(=O)CCC1CCCCC1 class_label=inactive
compound="COC(=O)C(C)N(C(=O)Cc1ccccc1)c1c(C)cccc1C (stereo not drawn)" class_label=inactive
compound=CCCCCCCc1ccc(O)cc1 class_label=inactive
compound=Cc1ccn2nc(S(=O)(=O)Nc3c(F)cccc3F)nc2n1 class_label=inactive
compound=NC(=S)c1c(Cl)cccc1Cl class_label=inactive
compound=Cc1cc(-c2ccc(N)c(C)c2)ccc1N class_label=inactive
compound=CCOP(=O)(CN(CCO)CCO)OCC class_label=inactive
compound=Nc1ccc(N)cc1 class_label=inactive
compound=C=CC(=O)OC class_label=inactive
compound=CCCn1cc[n+](C)c1 class_label=inactive
compound=CN1COCN(Cc2cnc(Cl)s2)/C1=N\[N+](=O)[O-] class_label=inactive
compound=CCOC(=O)c1ncn2c1CN(C)C(=O)c1c(I)cccc1-2 class_label=inactive

###

assay: cAMP Responsive Elements (CRE) small molecule antagonists, cell-based qHTS assay: qHTS cell viability counter screen (AID 2060913); details: CRE-bla HEK293T viability, CellTiter-Glo luminescence, 5 h; series mostly up to 92.4 µM; note: nearly all actives have a fitted effect of over 40% in size
Inconclusive results are not listed. Activity calls are given as the source filed them. The call rests on the fitted dose curve; in most records, active means well fitted cell-killing curve with a large enough effect in the repeat runs; inconclusive means weak or mixed curves, or effect the other way; inactive means flat fitted curve, though single readings scatter.
Classes used: class 1 (active), class 0 (inactive)

compound_structure=COP(=O)(OC)O/C(C)=C/C(=O)N(C)C class_label="class 0"
compound_structure=CC(C)(O)c1cnn2c(-c3ccc(F)c(-c4c(F)cccc4C#N)c3)cnc2n1 class_label="class 0"
compound_structure=COc1cc(C=O)cc2c1[C@H](COC(N)=O)[C@]1(OC(C)=O)ON2C[C@H]2[C@@H]1N2C(C)=O class_label="class 0"
compound_structure=CC(=O)[O-].CC(=O)[O-].O.O.[Zn+2] class_label="class 0"
compound_structure=COc1ccc(C=O)cc1 class_label="class 0"
compound_structure=C=CCN(CC=C)C(=O)C(Cl)Cl class_label="class 0"
compound_structure=CCC[CH2][Sn]([CH2]CCC)([CH2]CCC)[O][Sn]([CH2]CCC)([CH2]CCC)[CH2]CCC class_label="class 1"
compound_structure=CCN(CCO)CCn1c(Cc2ccccc2)nc2c1c(=O)n(C)c(=O)n2C class_label="class 0"
compound_structure=C[C@]12CC[C@@H]3c4ccc(OC(=O)N(CCCl)CCCl)cc4CC[C@H]3[C@@H]1CC[C@@H]2O class_label="class 0"
compound_structure=NC(=O)CN1CCCC1=O class_label="class 0"
compound_structure=C[N+](C)(C)CC(=O)O class_label="class 0"
compound_structure=CCOCCOC(C)=O class_label="class 0"

###

assay: cAMP Responsive Elements (CRE) small molecule antagonists, cell-based qHTS assay: qHTS cell viability counter screen (AID 2060913); conditions: CRE-bla HEK293T viability, CellTiter-Glo luminescence, 5 h; series mostly up to 92.4 µM; note: nearly all actives have a fitted effect of over 40% in size
Records with an inconclusive call do not appear. Activity calls are given as the source filed them. The call rests on the fitted dose curve; in most records, active means well fitted cell-killing curve with a large enough effect in the repeat runs; inconclusive means weak or mixed curves, or effect the other way; inactive means flat fitted curve, though single readings scatter.
Classes used: active, inactive

compound=CCCN(CCC)c1c([N+](=O)[O-])cc(S(N)(=O)=O)cc1[N+](=O)[O-] class_label=active
compound=FC(F)(F)c1cccc(C2=CCN(CCc3ccc4ccccc4c3)CC2)c1 class_label=inactive
compound=CCOCn1c(-c2ccc(Cl)cc2)c(C#N)c(Br)c1C(F)(F)F class_label=inactive
compound=O=C(O)C(F)(F)C(F)(F)C(F)(F)C(F)(F)C(F)(F)C(F)(F)C(F)(F)F class_label=inactive
compound="CCC(COC(=O)c1cc(OC)c(OC)c(OC)c1)(c1ccccc1)N(C)C (stereo unspecified)" class_label=inactive
compound="CC(C)(C1CCC(O)CC1)C1CCC(O)CC1 (stereo unspecified)" class_label=inactive
compound="CCC(C)c1cc([N+](=O)[O-])cc([N+](=O)[O-])c1O (stereo unspecified)" class_label=inactive
compound=CCOP(=S)(OCC)SCCSCC class_label=inactive
compound=CNC(=O)Oc1cccc2c1OC(C)(C)C2 class_label=inactive
compound=CNC(=O)Oc1cc(C)c(N(C)C)c(C)c1 class_label=inactive
compound=C1CCNCC1 class_label=inactive
compound=Cc1ccccc1N class_label=inactive
compound=CCCCN(CC)c1c([N+](=O)[O-])cc(C(F)(F)F)cc1[N+](=O)[O-] class_label=inactive
compound=ClC(Cl)=C(Cl)Cl class_label=inactive
compound=O=C(Cl)C(Cl)Cl class_label=inactive
compound=CCOP(=S)(OCC)Oc1ccc2c(C)c(Cl)c(=O)oc2c1 class_label=inactive
compound=Nc1ccc(Cl)cc1 class_label=inactive
compound=C=CC[C@]1(O)CC[C@H]2[C@@H]3CCC4=CC(=O)CCC4=C3C=C[C@@]21C class_label=inactive
compound=Oc1cccc(Cl)c1 class_label=inactive
compound=O=C(NC(=O)c1c(F)cccc1F)Nc1ccc(Oc2ccc(C(F)(F)F)cc2Cl)cc1F class_label=inactive
compound=CC(C)(C)CC(C)(C)c1ccc(O)cc1 class_label=active
compound=CCOP(=O)(Sc1ccccc1)Sc1ccccc1 class_label=inactive
compound=Cc1cc2c3c(c1)C(c1ccccc1)=N[C@@H](NC(=O)c1ccncc1)C(=O)N3CC2 class_label=inactive
compound=S=C=Nc1cccc2ccccc12 class_label=inactive
compound=COc1ccc2c(c1OC)C(=O)O[C@H]2[C@@H]1c2cc3c(cc2CCN1C)OCO3 class_label=inactive
compound=O=C(CBr)c1ccc(O)cc1 class_label=inactive
